Answer each item with its documented Ki.
tested.on: cynomolgus BK1-receptor (Macaca fascicularis, UniProt Q3BCU0)
Sequence (Q3BCU0 1-352): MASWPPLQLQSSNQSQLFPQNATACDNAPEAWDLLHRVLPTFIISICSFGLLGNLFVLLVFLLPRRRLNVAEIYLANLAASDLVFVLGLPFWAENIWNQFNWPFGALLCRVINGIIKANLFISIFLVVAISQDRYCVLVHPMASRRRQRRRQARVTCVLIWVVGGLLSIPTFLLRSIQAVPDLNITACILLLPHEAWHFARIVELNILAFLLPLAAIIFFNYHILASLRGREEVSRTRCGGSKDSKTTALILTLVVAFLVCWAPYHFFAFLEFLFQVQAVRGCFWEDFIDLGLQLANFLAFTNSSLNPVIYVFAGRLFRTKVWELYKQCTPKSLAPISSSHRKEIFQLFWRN
Answers are plain numbers, in µM.

Consider the reported Ki for these compounds:
given.smiles | Ki (µM)
Nc1ccc(C(=O)NC2(C(=O)NCc3ccc(Nc4ccc(Cl)cc4C(F)(F)F)cn3)CC2)cn1 | 0.0051
O=C(N[C@@]1(C(=O)NCc2ncc(Nc3c(F)cccc3C(F)(F)F)cc2F)CCOC1)c1cncnc1 | 0.115
COc1cncc(C(=O)N[C@@]2(C(=O)NCc3ccc(Nc4ccc(F)cc4C(F)(F)F)cc3)CCOC2)c1 | 0.093
CNc1cncc(C(=O)NC2(C(=O)NCc3ccc(Nc4ccc(F)cc4C(F)(F)F)cn3)CC2)n1 | 0.235
O=C(NC1(C(=O)NCc2ccc(Nc3ccc(Br)cc3C(F)(F)F)cn2)CC1)c1cncnc1 | 0.0038
Cc1ncc(C(=O)N[C@@]2(C(=O)NCc3ccc(Nc4c(F)cccc4C(F)(F)F)cc3F)CCOC2)cn1 | 0.04
CC(C)Nc1ncc(C(=O)NC2(C(=O)NCc3ccc(Nc4ccc(Cl)cc4C(F)(F)F)cn3)CC2)cn1 | 0.0068

GET /values?readout=Ki&system=cynomolgus BK1-receptor (Macaca fascicularis, UniProt Q3BCU0)&item= `CC(=O)Nc1ncc(C(=O)NC2(C(=O)NCc3ccc(Nc4ccc(F)cc4C(F)(F)F)cn3)CC2)s1`
0.017

---

tested.on: cynomolgus BK1-receptor (Macaca fascicularis)
Construct: expressed in transfected cells; host or cells: CHO cells (homogenate)
Sequence (Q3BCU0 1-352): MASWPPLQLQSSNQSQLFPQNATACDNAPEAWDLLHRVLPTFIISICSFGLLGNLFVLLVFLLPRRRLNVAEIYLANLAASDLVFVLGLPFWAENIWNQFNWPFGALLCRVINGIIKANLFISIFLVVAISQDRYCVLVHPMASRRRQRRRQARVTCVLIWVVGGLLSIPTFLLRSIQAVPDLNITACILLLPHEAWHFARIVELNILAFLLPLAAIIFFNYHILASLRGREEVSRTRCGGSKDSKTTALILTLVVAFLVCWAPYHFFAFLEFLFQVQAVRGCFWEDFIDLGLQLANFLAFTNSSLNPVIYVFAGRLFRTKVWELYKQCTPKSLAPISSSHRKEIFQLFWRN
assay.summary: cynoBK1-receptor binding assay
condition.set: at 10 μgmol/L; CHO cells expressing cynomolgus BK1-receptor, radioligand kallidine (DesArg10,Leu9)
Answer each item with its documented inhibition at 10 µM.
Numbers only, in %.

Consider the reported inhibition at 10 µM for these compounds:
compound | value
O=C(N[C@@]1(C(=O)NCc2ccc(Nc3ccccc3C(F)(F)F)cc2)CCOC1)c1ccnnc1 | 109
O=C(CC1CC1)NC1(C(=O)NCc2ccc(Nc3ccccc3C(F)(F)F)cc2)CC1 | 96
Nc1cncc(C(=O)NC2(C(=O)NCc3ncc(Nc4c(F)cccc4C(F)(F)F)cc3F)CC2)c1 | 108

Could I get inhibition at 10 µM for every one of these entries?
1. O=C(N[C@@]1(C(=O)NCc2ccc(Nc3ccccc3C(F)(F)F)cc2)CCOC1)c1cncnc1
2. Nc1ncc(C(=O)NC2(C(=O)NCc3ccc(Nc4ccc(F)cc4C(F)(F)F)cn3)CC2)s1
3. O=C1CCC(NC(=O)c2cncnc2)(C(=O)NCc2ccc(Nc3ccccc3C(F)(F)F)cn2)C1 (centres unmarked)

[108, 99, 101]

Could I get inhibition at 10 µM for every one of these entries?
1. O=C(NC1(C(=O)NCc2ccc(Nc3ccc(Br)cc3C(F)(F)F)cn2)CC1)c1cncs1
2. O=C(Cc1cncnc1)NC1(C(=O)NCc2ccc(Nc3ccccc3C(F)(F)F)cc2)CC1
3. O=C(N[C@@]1(C(=O)NCc2ccc(Nc3ccccc3C(F)(F)F)cc2)CCOC1)C1CCOCC1
4. CC(NC(=O)[C@]1(NC(=O)c2cncnc2)CCOC1)c1ccc(Nc2ccc(Br)cc2C(F)(F)F)cn1 (some centres unmarked)

1: 100; 2: 94; 3: 76; 4: 92

Could I get inhibition at 10 µM for every one of these entries?
1. O=C(N[C@@]1(C(=O)NCc2ccc(Nc3ccccc3C(F)(F)F)cc2)CCOC1)c1cnc(O)nc1
2. O=C(N[C@@]1(C(=O)NCc2ccc(Nc3ccccc3C(F)(F)F)cc2)CCOC1)c1cnccn1
3. CC(NC(=O)[C@]1(NC(=O)c2cncnc2)CCOC1)c1ccc(Nc2ccc(F)cc2C(F)(F)F)cn1 (some centres unmarked)
4. N#Cc1cc(F)ccc1Nc1cnc(CNC(=O)C2(NC(=O)c3cncnc3)CC2)c(F)c1
5. Cn1cnc(C(=O)NC2(C(=O)NCc3ccc(Nc4ccccc4C(F)(F)F)cc3)CC2)c1

1. 109
2. 78
3. 94
4. 106
5. 75

Could I get inhibition at 10 µM for every one of these entries?
1. N#Cc1c(F)cccc1Nc1ccc(CNC(=O)C2(NC(=O)c3cncnc3)CC2)cc1
2. Nc1cncc(C(=O)N[C@@]2(C(=O)NCc3ccc(Nc4ccccc4C(F)(F)F)cc3)CCOC2)c1

[99, 113]

meta.source: patent US20130131075A1
